Test system: amidase
test_name: Substrate specificity of the isolated amidase (hydrolysis assay)
Assay type: biochemical, Pseudonocardia thermophila
stated_conditions: Amino acid amides; 3 h at 30° C.
Parameter: Specific activity. Scope: all listed entries.
observable: Specific activity (µmol/min/mg)

compound	recorded_number
CC(C)(C)[C@H](N)C(N)=O [L-tert-leucinamide]	0.08
NC(=O)[C@@H]1CCCN1 [L-prolinamide]	13.0
CC(C)C[C@H](N)C(N)=O [L-leucinamide]	10.8
CC(C)[C@H](N)C(N)=O [L-valinamide]	13.0
CSCC[C@H](N)C(N)=O [L-methioninamide]	14.4
CSCCC(O)C(N)=O (centres unmarked) [2-hydroxy-4-(methylthio)butyramide]	5.7
C[C@H](N)C(N)=O [L-alaninamide]	10.5
NC(=O)[C@@H](N)Cc1c[nH]c2ccccc12 [L-tryptophanamide]	10.3
